Run description: Hygroscopicity test
Assay type: physicochemical
Stated conditions: relative humidity 43%, 30° C., one week
Assay endpoint: Weight difference (%)

1. COC1(c2cccc(F)c2F)CCNC1.O=C(O)C[C@H](O)C(=O)O (centres unmarked) ... −0.22
2. CO[C@]1(c2cccc(F)c2F)CCNC1.O=C(O)/C=C/C(=O)O ... 0.07
3. COC1(c2cccc(F)c2F)CCNC1.Cl (centres unmarked) ... −0.13
4. COC1(c2cccc(F)c2F)CCNC1.O=C(O)C(O)C(O)C(=O)O (centres unmarked) ... 1.71
5. COC1(c2cccc(F)c2F)CCNC1.O=C(O)C(=O)O (centres unmarked) [Reference Example 19, reference compound] ... −0.05

---

Run description: Hygroscopicity test
Assay type: physicochemical
Stated conditions: relative humidity 6%, 30° C., one week
Assay endpoint: Weight difference (%)

1. CO[C@]1(c2cccc(F)c2F)CCNC1.O=C(O)/C=C/C(=O)O ... −0.14%
2. COC1(c2cccc(F)c2F)CCNC1.Cl (centres unmarked) ... −0.07%
3. COC1(c2cccc(F)c2F)CCNC1.O=C(O)C(=O)O (centres unmarked) [Reference Example 19, reference compound] ... 0.00%
4. COC1(c2cccc(F)c2F)CCNC1.O=C(O)C[C@H](O)C(=O)O (centres unmarked) ... 0.00%
5. COC1(c2cccc(F)c2F)CCNC1.O=C(O)C(O)C(O)C(=O)O (centres unmarked) ... −0.67%

---

Run description: Hygroscopicity test
Type: physicochemical
Stated conditions: relative humidity 11%, 30° C., one week
Assay endpoint: Weight difference (%)

1. COC1(c2cccc(F)c2F)CCNC1.O=C(O)C(O)C(O)C(=O)O (centres unmarked) ... −0.14
2. COC1(c2cccc(F)c2F)CCNC1.Cl (centres unmarked) ... −0.06
3. COC1(c2cccc(F)c2F)CCNC1.O=C(O)C[C@H](O)C(=O)O (centres unmarked) ... −0.13
4. CO[C@]1(c2cccc(F)c2F)CCNC1.O=C(O)/C=C/C(=O)O ... 0.11
5. COC1(c2cccc(F)c2F)CCNC1.O=C(O)C(=O)O (centres unmarked) [Reference Example 19, reference compound] ... −0.21
